Measured values drawn from patent US11760762B2 for this set.

# ASSAY SYSTEM: PI3K-alpha (Homo sapiens, UniProt P42336)
# Construct: Thermo Fisher Scientific-Biosciences Life Sciences Solutions, Madison, WI (contract assay service)
# Sequence (P42336 whole entry): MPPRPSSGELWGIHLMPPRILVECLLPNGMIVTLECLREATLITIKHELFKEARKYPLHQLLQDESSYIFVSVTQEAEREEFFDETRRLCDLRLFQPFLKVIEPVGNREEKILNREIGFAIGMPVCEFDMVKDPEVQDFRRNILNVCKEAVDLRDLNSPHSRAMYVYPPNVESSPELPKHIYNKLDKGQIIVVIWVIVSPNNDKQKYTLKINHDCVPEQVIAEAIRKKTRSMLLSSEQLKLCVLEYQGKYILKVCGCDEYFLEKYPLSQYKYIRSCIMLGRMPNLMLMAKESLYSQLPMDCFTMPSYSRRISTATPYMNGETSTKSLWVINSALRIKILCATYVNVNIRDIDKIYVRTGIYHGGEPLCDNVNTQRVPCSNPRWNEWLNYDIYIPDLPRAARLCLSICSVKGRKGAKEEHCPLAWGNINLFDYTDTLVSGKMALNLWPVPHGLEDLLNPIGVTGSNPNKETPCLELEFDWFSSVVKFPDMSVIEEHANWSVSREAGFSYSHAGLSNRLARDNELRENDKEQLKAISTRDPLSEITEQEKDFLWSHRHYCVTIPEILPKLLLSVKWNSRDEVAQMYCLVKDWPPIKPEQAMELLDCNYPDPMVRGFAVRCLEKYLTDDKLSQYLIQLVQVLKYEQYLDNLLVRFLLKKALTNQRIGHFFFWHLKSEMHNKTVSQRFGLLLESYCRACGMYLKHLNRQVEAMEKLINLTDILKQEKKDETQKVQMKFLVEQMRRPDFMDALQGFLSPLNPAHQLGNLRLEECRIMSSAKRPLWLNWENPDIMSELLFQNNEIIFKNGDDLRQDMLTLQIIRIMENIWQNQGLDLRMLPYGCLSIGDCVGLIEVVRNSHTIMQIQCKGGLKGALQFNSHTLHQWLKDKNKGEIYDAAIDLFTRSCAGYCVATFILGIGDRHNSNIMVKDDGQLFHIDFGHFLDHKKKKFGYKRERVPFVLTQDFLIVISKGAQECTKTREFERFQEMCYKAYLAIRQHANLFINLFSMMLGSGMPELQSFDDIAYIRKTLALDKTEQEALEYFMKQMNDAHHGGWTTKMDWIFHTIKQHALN
# Sequence (P27986 whole entry partner): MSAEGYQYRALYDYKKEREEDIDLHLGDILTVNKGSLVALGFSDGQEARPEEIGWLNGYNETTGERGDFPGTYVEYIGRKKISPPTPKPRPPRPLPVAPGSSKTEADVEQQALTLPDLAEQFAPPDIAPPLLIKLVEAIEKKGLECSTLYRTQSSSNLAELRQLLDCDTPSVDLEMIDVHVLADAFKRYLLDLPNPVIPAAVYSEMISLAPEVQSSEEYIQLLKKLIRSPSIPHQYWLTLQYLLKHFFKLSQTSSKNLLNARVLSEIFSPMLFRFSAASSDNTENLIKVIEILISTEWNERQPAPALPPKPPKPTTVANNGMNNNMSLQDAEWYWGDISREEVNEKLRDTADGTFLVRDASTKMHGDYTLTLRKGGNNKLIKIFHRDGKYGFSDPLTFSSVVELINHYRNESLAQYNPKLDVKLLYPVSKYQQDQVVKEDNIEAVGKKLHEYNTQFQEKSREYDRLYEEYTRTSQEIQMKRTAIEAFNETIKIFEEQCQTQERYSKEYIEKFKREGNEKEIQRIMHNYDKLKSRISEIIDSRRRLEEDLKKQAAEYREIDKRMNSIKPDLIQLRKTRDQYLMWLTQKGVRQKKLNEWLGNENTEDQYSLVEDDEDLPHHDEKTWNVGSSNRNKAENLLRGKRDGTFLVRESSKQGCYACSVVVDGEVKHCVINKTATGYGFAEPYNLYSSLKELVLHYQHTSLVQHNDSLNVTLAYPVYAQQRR
# ASSAY INFO: PI3K inhibition (Thermo Fisher Scientific)
# RUN PARAMETERS: 10-point curve, grouped by potency; read-out: IC50 P13K α
pIC50: −log10 of the molar value. Structures can show the parent of a compound that is named as a salt.
READOUT LABEL: pIC50

QUERY: Check the records and state pIC50 for CN(C)C(=S)c1cc2cnc(Nc3ccc(-c4csc5c(=S)cc(N6CCOCC6)oc45)cc3)nc2n1C1CCCC1 [Compound 12]
RESULT: 6.00 to 7.00

QUERY: Check the records and state pIC50 for COC(=O)c1cc(Nc2ncc3cc(C(=O)N(C)C)n(C4CCCC4)c3n2)ccc1-c1csc2c(=O)cc(N3CCOCC3)oc12 [Compound 7]
RESULT: 6.00 to 7.00

QUERY: Check the records and state pIC50 for CN(C)C(=O)c1cc2cnc(Nc3ccc(-c4csc5c(=O)cc(N6CCOCC6)oc45)c(C(=O)O)c3)nc2n1C1CCCC1 [Compound 10]
RESULT: > 7.00

QUERY: Check the records and state pIC50 for CN(C)C(=O)c1cc2cnc(Nc3ccc(-c4csc5c(=O)cc(N6CCOCC6)oc45)cn3)nc2n1C1CCCC1 [Compound 3]
RESULT: 6.00 to 7.00

QUERY: Check the records and state pIC50 for CN(C)C(=O)c1cc2cnc(Nc3ccc(-c4csc5c(=O)cc(N6CCN(C(=O)OC(C)(C)C)CC6)oc45)cc3)nc2n1C1CCCC1 [Compound 18]
RESULT: 4.30 to 5.30

QUERY: Check the records and state pIC50 for Cc1nc2c(F)cc(-c3nc(Nc4ccc(-c5csc6c(=O)cc(N7CCOCC7)oc56)cc4)ncc3F)cc2n1C(C)C [Compound 5]
RESULT: 4.30 to 5.30

QUERY: Check the records and state pIC50 for CC(=O)c1c(C)c2cnc(Nc3ccc(-c4csc5c(=O)cc(N6CCOCC6)oc45)cc3)nc2n(C2CCCC2)c1=O [Compound 6]
RESULT: > 7.00

QUERY: Check the records and state pIC50 for COC(=O)c1cc(-c2csc3c(=O)cc(N4CCOCC4)oc23)ccc1Nc1ncc2cc(C(=O)N(C)C)n(C3CCCC3)c2n1 [Compound 4]
RESULT: 6.00 to 7.00

QUERY: Check the records and state pIC50 for CN(C)C(=O)c1cc2cnc(Nc3ccc(-c4csc5c(=S)cc(N6CCOCC6)oc45)cc3)nc2n1C1CCCC1 [Compound 11]
RESULT: 6.00 to 7.00

QUERY: Check the records and state pIC50 for CN(C)C(=O)c1cc2cnc(Nc3ccc(-c4csc5c(=O)cc(N6CCNCC6)oc45)cc3)nc2n1C1CCCC1 [compound 2, hydrochloride]
RESULT: 4.30 to 5.30

---

# ASSAY SYSTEM: CDK4 (Homo sapiens, UniProt P11802)
# Construct: Reaction Biology Corp., Malvern, PA (contract assay service)
# Sequence (P11802 whole entry): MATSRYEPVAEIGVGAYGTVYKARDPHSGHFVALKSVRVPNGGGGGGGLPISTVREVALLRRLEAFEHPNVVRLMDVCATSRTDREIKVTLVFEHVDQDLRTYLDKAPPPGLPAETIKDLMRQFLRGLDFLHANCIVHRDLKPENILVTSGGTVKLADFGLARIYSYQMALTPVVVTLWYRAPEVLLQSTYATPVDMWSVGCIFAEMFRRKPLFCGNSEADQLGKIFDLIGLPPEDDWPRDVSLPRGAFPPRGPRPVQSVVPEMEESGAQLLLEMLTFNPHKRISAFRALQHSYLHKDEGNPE
# Sequence (P24385 whole entry partner): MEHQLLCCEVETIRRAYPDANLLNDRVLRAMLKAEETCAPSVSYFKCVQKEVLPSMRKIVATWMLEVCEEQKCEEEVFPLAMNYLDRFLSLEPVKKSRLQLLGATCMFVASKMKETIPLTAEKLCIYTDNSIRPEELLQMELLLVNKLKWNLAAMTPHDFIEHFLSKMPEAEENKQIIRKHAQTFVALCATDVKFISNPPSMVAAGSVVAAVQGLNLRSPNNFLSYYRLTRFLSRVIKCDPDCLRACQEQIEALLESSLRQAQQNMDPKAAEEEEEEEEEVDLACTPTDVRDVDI
# ASSAY INFO: Cyclin dependent kinase inhibition (Reaction Biology Corp.)
# Type: biochemical
READOUT LABEL: IC50

QUERY: Check the records and state IC50 for CN(C)C(=O)c1cc2cnc(Nc3ccc(-c4csc5c(=O)cc(N6CCOCC6)oc45)cc3)nc2n1C1CCCC1 [Compound 1]
RESULT: < 2.54 nM
